Listed here are compounds together with their documented relative viability.
# Tested on: NCI-H1437
# EXPERIMENT DESCRIPTION: relative viability (nuclei count vs DMSO), 5 days (fraction); higher = more cells survive
# MEASUREMENT CONTEXT: first compound 6.325 µM

COMPOUND | relative viability
Cc1csc(=NC2CCCCC2)n1/N=C/c1ccc(O)c(O)c1O [MIM1] + COc1cccc2cc(-c3nc([C@H]4CC[C@H](C(=O)O)CC4)n4ncnc(N)c34)[nH]c12 [OSI-027] (partner 0.5 µM) | 0.599
Cc1csc(=NC2CCCCC2)n1/N=C/c1ccc(O)c(O)c1O [MIM1] + C[C@]1(O)C[C@@H](c2nc(-c3ccc4ccc(-c5ccccc5)nc4c3)c3c(N)nccn32)C1 [Linsitinib] (partner 1 µM) | 0.507
Cc1csc(=NC2CCCCC2)n1/N=C/c1ccc(O)c(O)c1O [MIM1] + CS(=O)(=O)N1CCN(Cc2cc3nc(-c4cccc5[nH]ncc45)nc(N4CCOCC4)c3s2)CC1 [Pictilisib] (partner 1 µM) | 0.269
Cc1csc(=NC2CCCCC2)n1/N=C/c1ccc(O)c(O)c1O [MIM1] + COc1cc2c(Oc3ccc(NC(=O)C4(C(=O)Nc5ccc(F)cc5)CC4)cc3F)ccnc2cc1OCCCN1CCOCC1 [Foretinib] (partner 0.25 µM) | 1.1
Cc1csc(=NC2CCCCC2)n1/N=C/c1ccc(O)c(O)c1O [MIM1] + CC(C)C[C@H](NC(=O)[C@H](Cc1ccccc1)NC(=O)c1cnccn1)B(O)O [Bortezomib] (partner 0.002 µM) | 0.221
Cc1csc(=NC2CCCCC2)n1/N=C/c1ccc(O)c(O)c1O [MIM1] + CS(=O)(=O)CCNCc1ccc(-c2ccc3ncnc(Nc4ccc(OCc5cccc(F)c5)c(Cl)c4)c3c2)o1 [Lapatinib] (partner 2 µM) | 0.456
Cc1csc(=NC2CCCCC2)n1/N=C/c1ccc(O)c(O)c1O [MIM1] + C[C@@H](Oc1cc(-c2cnn(C3CCNCC3)c2)cnc1N)c1c(Cl)ccc(F)c1Cl [Crizotinib] (partner 1 µM) | 0.559

###

# System: HCC-827
# EXPERIMENT DESCRIPTION: relative viability (nuclei count vs DMSO), 5 days (fraction); higher = more cells survive
# MEASUREMENT CONTEXT: first compound 0.02 µM

MOLECULE | SYSTEM NAME | relative viability
CCNC(=O)c1noc(-c2cc(C(C)C)c(O)cc2O)c1-c1ccc(CN2CCOCC2)cc1 [Luminespib] + Nc1nc2[nH]cc(CCc3ccc(C(=O)N[C@@H](CCC(=O)O)C(=O)O)cc3)c2c(=O)[nH]1 [Pemetrexed] (partner 0.2 µM) | HCC-827 | 0.236
CN1CCN(CCOc2cc(OC3CCOCC3)c3c(Nc4c(Cl)ccc5c4OCO5)ncnc3c2)CC1 [Saracatinib] + CC(=O)Nc1cccc(-n2c(=O)n(C3CC3)c(=O)c3c(Nc4ccc(I)cc4F)n(C)c(=O)c(C)c32)c1 [Trametinib] (partner 0.02 µM) | HCC-827 | 0.542

###

# System: NCI-H520
# EXPERIMENT DESCRIPTION: relative viability (nuclei count vs DMSO), 5 days (fraction); higher = more cells survive
# MEASUREMENT CONTEXT: first compound 0.02 µM
Recorded relative viability for the following compounds

COMPOUND | relative viability
CCNC(=O)c1noc(-c2cc(C(C)C)c(O)cc2O)c1-c1ccc(CN2CCOCC2)cc1 [Luminespib] + Nc1nc2[nH]cc(CCc3ccc(C(=O)N[C@@H](CCC(=O)O)C(=O)O)cc3)c2c(=O)[nH]1 [Pemetrexed] (partner 0.2 µM) | 0.792
CCNC(=O)c1noc(-c2cc(C(C)C)c(O)cc2O)c1-c1ccc(CN2CCOCC2)cc1 [Luminespib] + O=C(c1cc(Cc2n[nH]c(=O)c3ccccc23)ccc1F)N1CCN(C(=O)C2CC2)CC1 [Olaparib] (partner 8 µM) | 0.227
CN1CCN(CCOc2cc(OC3CCOCC3)c3c(Nc4c(Cl)ccc5c4OCO5)ncnc3c2)CC1 [Saracatinib] + Cc1nc(Nc2ncc(C(=O)Nc3c(C)cccc3Cl)s2)cc(N2CCN(CCO)CC2)n1 [Dasatinib] (partner 0.075 µM) | 0.21
CCNC(=O)c1noc(-c2cc(C(C)C)c(O)cc2O)c1-c1ccc(CN2CCOCC2)cc1 [Luminespib] + Nc1ncn([C@H]2C[C@H](O)[C@@H](CO)O2)c(=O)n1 [Decitabine] (partner 2 µM) | 0.317
CCNC(=O)c1noc(-c2cc(C(C)C)c(O)cc2O)c1-c1ccc(CN2CCOCC2)cc1 [Luminespib] + Cc1nc(NC(=O)N2CCC[C@H]2C(N)=O)sc1-c1ccnc(C(C)(C)C(F)(F)F)c1 [Alpelisib] (partner 2 µM) | 1.01

###

# Test system: SW 900
# EXPERIMENT DESCRIPTION: relative viability (nuclei count vs DMSO), 5 days (fraction); higher = more cells survive
# MEASUREMENT CONTEXT: first compound 2 µM
Exam item: assign true to entries whose relative viability is below 0.5 and false to entries at or above 0.5. Note that a value of exactly 0.5 receives false.

MOLECULE | LABEL CLASS
Cc1csc(=NC2CCCCC2)n1/N=C/c1ccc(O)c(O)c1O [MIM1] + CCNC(=O)c1noc(-c2cc(C(C)C)c(O)cc2O)c1-c1ccc(CN2CCOCC2)cc1 [Luminespib] (partner 0.01 µM) | true
Cc1csc(=NC2CCCCC2)n1/N=C/c1ccc(O)c(O)c1O [MIM1] + O=C(CCCCCCC(=O)Nc1ccccc1)NO [Vorinostat] (partner 1 µM) | false
Cc1csc(=NC2CCCCC2)n1/N=C/c1ccc(O)c(O)c1O [MIM1] + COc1cccc2cc(-c3nc([C@H]4CC[C@H](C(=O)O)CC4)n4ncnc(N)c34)[nH]c12 [OSI-027] (partner 0.5 µM) | false
CN1CCN(CCOc2cc(OC3CCOCC3)c3c(Nc4c(Cl)ccc5c4OCO5)ncnc3c2)CC1 [Saracatinib] + Nc1ncn([C@H]2C[C@H](O)[C@@H](CO)O2)c(=O)n1 [Decitabine] (partner 2 µM) | false
CN1CCN(CCOc2cc(OC3CCOCC3)c3c(Nc4c(Cl)ccc5c4OCO5)ncnc3c2)CC1 [Saracatinib] + CC(=O)Nc1cccc(-n2c(=O)n(C3CC3)c(=O)c3c(Nc4ccc(I)cc4F)n(C)c(=O)c(C)c32)c1 [Trametinib] (partner 0.02 µM) | false
CN1CCN(CCOc2cc(OC3CCOCC3)c3c(Nc4c(Cl)ccc5c4OCO5)ncnc3c2)CC1 [Saracatinib] + COc1cc2c(Oc3ccc(NC(=O)C4(C(=O)Nc5ccc(F)cc5)CC4)cc3F)ccnc2cc1OCCCN1CCOCC1 [Foretinib] (partner 0.25 µM) | false
CN1CCN(CCOc2cc(OC3CCOCC3)c3c(Nc4c(Cl)ccc5c4OCO5)ncnc3c2)CC1 [Saracatinib] + N=C(N)NC(=N)NCCc1ccccc1 [Phenformin] (partner 250 µM) | true
CN1CCN(CCOc2cc(OC3CCOCC3)c3c(Nc4c(Cl)ccc5c4OCO5)ncnc3c2)CC1 [Saracatinib] + O=C(c1cc(Cc2n[nH]c(=O)c3ccccc23)ccc1F)N1CCN(C(=O)C2CC2)CC1 [Olaparib] (partner 8 µM) | false
Cc1csc(=NC2CCCCC2)n1/N=C/c1ccc(O)c(O)c1O [MIM1] + N=C(N)NC(=N)NCCc1ccccc1 [Phenformin] (partner 250 µM) | false
Cc1csc(=NC2CCCCC2)n1/N=C/c1ccc(O)c(O)c1O [MIM1] + NC(=O)Nc1cc(-c2cccc(F)c2)sc1C(=O)N[C@H]1CCCNC1 [AZD7762] (partner 0.2 µM) | false

###

# Tested on: NCI-H1355
# EXPERIMENT DESCRIPTION: relative viability (nuclei count vs DMSO), 5 days (fraction); higher = more cells survive
# MEASUREMENT CONTEXT: first compound 0.6325 µM
relative viability strictly less than 0.9 = class 1. Otherwise class 0.

COMPOUND | LABEL CLASS
Cc1csc(=NC2CCCCC2)n1/N=C/c1ccc(O)c(O)c1O [MIM1] + O=C(CCCCCCC(=O)Nc1ccccc1)NO [Vorinostat] (partner 1 µM) | class 1
CN1CCN(CCOc2cc(OC3CCOCC3)c3c(Nc4c(Cl)ccc5c4OCO5)ncnc3c2)CC1 [Saracatinib] + CC(=O)c1c(C)c2cnc(Nc3ccc(N4CCNCC4)cn3)nc2n(C2CCCC2)c1=O [Palbociclib] (partner 0.5 µM) | class 1
Cc1csc(=NC2CCCCC2)n1/N=C/c1ccc(O)c(O)c1O [MIM1] + CC1(C)CCC(c2ccc(Cl)cc2)=C(CN2CCN(c3ccc(C(=O)NS(=O)(=O)c4ccc(N[C@H](CCN5CCOCC5)CSc5ccccc5)c(S(=O)(=O)C(F)(F)F)c4)cc3)CC2)C1 [Navitoclax] (partner 0.5 µM) | class 0
Cc1csc(=NC2CCCCC2)n1/N=C/c1ccc(O)c(O)c1O [MIM1] + Nc1nc2[nH]cc(CCc3ccc(C(=O)N[C@@H](CCC(=O)O)C(=O)O)cc3)c2c(=O)[nH]1 [Pemetrexed] (partner 0.2 µM) | class 0
CN1CCN(CCOc2cc(OC3CCOCC3)c3c(Nc4c(Cl)ccc5c4OCO5)ncnc3c2)CC1 [Saracatinib] + Nc1ncn([C@H]2C[C@H](O)[C@@H](CO)O2)c(=O)n1 [Decitabine] (partner 2 µM) | class 1
